- Test system: U-251
- PROCEDURE SUMMARY: NCI tumour cell line growth inhibition, 48 h
Active and inactive are the calls of the source. No stated cut-off is given here; in the data, active = GI50 up to about 1.1 µM and inactive = higher.
MEASUREMENT NAME: GI50

Solved entries:
Data point: N=C(N)NS(=O)(=O)c1ccc(NNc2c3ccccc3nc3c(C(=O)Nc4ccc(S(N)(=O)=O)cc4)cccc23)cc1 ; GI50 = 7.59 µM (inactive)

Data point: Cc1cc(S(=O)(=O)Nc2nc(N)nc(N(C)C)n2)c(SCC(=O)O)cc1Cl ; GI50 = > 10 µM (inactive)

Data point: NNC(=O)CC(=O)Nc1ccc(S(=O)(=O)c2ccc(NC(=O)CC(=O)NN)cc2)cc1 ; GI50 = > 100 µM (inactive)

Further cases:
Data point: CCOc1ccc(C2=C(Cl)c3cc(OC)c(OC)cc3C2Cl)cc1 (stereo not given) ; GI50 = 18.2 µM (inactive)

Data point: COC(=O)C1(F)C(=O)NC(=O)NC1OC (stereo not given) ; GI50 = 24.5 µM (inactive)

Data point: CN(C)CCCN1c2ccccc2C(C)(C)c2ccccc21 ; GI50 = 12.4 µM (inactive)

Data point: O=C(O)CCn1cnc2c(S)ncnc21 ; GI50 = > 100 µM (inactive)

Data point: O=C1/C(=C/c2ccc(Br)s2)NC(=S)N1CN1CCCCC1 ; GI50 = 28.8 µM (inactive)

Data point: CC(C)OC(=O)c1cc(NC(=O)C(C)(C)C)c(F)cc1Cl ; GI50 = > 100 µM (inactive)

Data point: [O-]c1c2c(nn1-c1ccc(Cl)cc1)c1ccccc1c[n+]2Cc1ccccc1 ; GI50 = > 100 µM (inactive)
